Reference source for all entries: paper PMC11091889

# IC50 measurements, system: UniProt P0A9P4
# Sequence (P0A9P4 whole entry): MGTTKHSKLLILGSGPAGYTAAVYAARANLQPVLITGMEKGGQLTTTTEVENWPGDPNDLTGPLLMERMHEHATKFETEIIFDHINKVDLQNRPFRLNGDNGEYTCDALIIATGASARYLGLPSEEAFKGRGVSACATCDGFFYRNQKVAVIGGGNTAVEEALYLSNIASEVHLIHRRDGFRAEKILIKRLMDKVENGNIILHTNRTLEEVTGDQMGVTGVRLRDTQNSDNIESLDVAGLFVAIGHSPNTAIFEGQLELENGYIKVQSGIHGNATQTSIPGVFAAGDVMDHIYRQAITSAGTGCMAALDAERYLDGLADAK
Entry rule: numbers only, all in nM.

Would you please look over these solved cases?
CC(C)n1[c](=[Ag][Br])n(Cc2ccccn2)c2ccccc21 [3b]	92
O=[N+]([O-])[O-].[Ag+] [AgNO3, Silver nitrate, reference compound]	54
CC(C)n1[c](=[Ag][I])n(Cc2ccccn2)c2ccccc21 [3c]	122

stdin: Report IC50 on UniProt P0A9P4 for this entry: CC(C)n1[c](=[Ag][Cl])n(Cc2ccccn2)c2ccccc21 [3a]
stdout: 103

----------
Tested on: P. aeruginosa PA7 (DSM 24068)
Test: microbe, parasite or virus in culture
Type: cell-based, Pseudomonas aeruginosa
Conditions: n = 3, MHB, 22 h
Catalogue of molecules with associated MIC P. aeruginosa (value in brackets)

Would you please look over these solved cases?
O=[N+]([O-])[O-].[Ag+] [AgNO3, Silver nitrate, reference compound]	1 µg/mL
CCn1[c](=[Ag][Cl])n(Cc2ccccn2)c2ccccc21	4 µg/mL
CCn1[c](=[Ag][Br])n(Cc2ccccn2)c2ccccc21	4 µg/mL

stdin: Provide one value: measured MIC P. aeruginosa (value in brackets) of [Br][Ag]=[c]1n(Cc2ccccc2)c2ccccc2n1Cc1ccccn1
stdout: 32 µg/mL

stdin: Provide one value: measured MIC P. aeruginosa (value in brackets) of Cn1[c]([Ag][Cl])[n+](Cc2ccccn2)c2ccccc21
stdout: 4 µg/mL

stdin: Provide one value: measured MIC P. aeruginosa (value in brackets) of [Br][Ag][c]1n(Cc2ccccn2)c2ccccc2[n+]1Cc1ccccn1
stdout: 13 µg/mL

----------
System: E. coli (DSM1116, ATCC 9637)
Assay: microbe, parasite or virus in culture
Type: cell-based, Escherichia coli
Settings: Müller-Hinton Broth with tryptone (17 g/L), ± SE
Value Type: MIC E. coli DSM 1116 in MHB + tryptone (µM)
Entry rule: numbers only, all in µM.

CC(C)n1[c](=[Ag][Cl])n(Cc2ccccn2)c2ccccc21 [3a]	162.2
CC(C)n1[c](=[Ag][I])n(Cc2ccccn2)c2ccccc21 [3c]	54.9

stdin: Provide one value: measured MIC E. coli DSM 1116 in MHB + tryptone of CC(C)n1[c](=[Ag][Br])n(Cc2ccccn2)c2ccccc21 [3b]
stdout: 145.7

stdin: Provide one value: measured MIC E. coli DSM 1116 in MHB + tryptone of O=[N+]([O-])[O-].[Ag+] [AgNO3, Silver nitrate, reference compound]
stdout: 251.1

----------
Assay: Conductometry: molar conductivity of silver complexes in DMSO
Assay type: physicochemical
Settings: 1.0 mM in DMSO, 24 h after dissolution, calculated as monocarbene (NHC)AgX
Protocol: Since both the neutral monocarbene and the ionic biscarbene form of the complexes may exist in various proportions in the solution, conductometry studies were performed to reveal the dominant structure. The molar conductivity of 1.0 mM solutions of each complex in DMSO was determined after different periods up to 24 h using AgNO3 as 1:1 electrolyte reference (see Table 1). […]
Molar conductivity ΛM below 4 S cm^2 mol^–^1 gives not satisfied; Molar conductivity ΛM at or above it gives satisfied.

stdin: Identify whether the reported Molar conductivity ΛM of the following molecule is 4 S cm^2 mol^–^1 or greater: CCn1[c](=[Ag][I])n(Cc2ccccn2)c2ccccc21
stdout: satisfied

stdin: Identify whether the reported Molar conductivity ΛM of the following molecule is 4 S cm^2 mol^–^1 or greater: [Br][Ag][c]1n(Cc2ccccn2)c2ccccc2[n+]1Cc1ccccn1
stdout: satisfied

stdin: Identify whether the reported Molar conductivity ΛM of the following molecule is 4 S cm^2 mol^–^1 or greater: Cn1[c](=[Ag][Br])n(Cc2ccccn2)c2ccccc21
stdout: satisfied

stdin: Identify whether the reported Molar conductivity ΛM of the following molecule is 4 S cm^2 mol^–^1 or greater: O=[N+]([O-])[O-].[Ag+] [AgNO3, Silver nitrate, reference compound]
stdout: satisfied

stdin: Identify whether the reported Molar conductivity ΛM of the following molecule is 4 S cm^2 mol^–^1 or greater: [Br][Ag]=[c]1n(Cc2ccccc2)c2ccccc2n1Cc1ccccn1
stdout: satisfied

----------
Tested on: P. aeruginosa (PA 14) biofilm
Experiment: Inhibition of biofilm formation, crystal violet staining
Type: cell-based, Pseudomonas aeruginosa
Conditions: ± SD, n = 4, at the respective smallest active concentration, 24 h
biofilm inhibition below 70% gives Not satisfied; biofilm inhibition at or above it gives Satisfied.

Below, 2 molecules whose answers are already recorded.
COCCn1[c](=[Ag][I])n(Cc2ccccn2)c2ccccc21 [4c]	Not satisfied
CC(C)n1[c](=[Ag][Br])n(Cc2ccccn2)c2ccccc21 [3b]	Satisfied

Then this molecule:
stdin: Identify whether the reported biofilm inhibition of the following molecule is 70% or greater: CC(C)n1[c](=[Ag][I])n(Cc2ccccn2)c2ccccc21 [3c]
stdout: Not satisfied

----------
Test system: K. pneumoniae (DSM 11678, ATCC33495)
Assay: Broth microdilution antibacterial assay
Type: cell-based, Klebsiella pneumoniae
Conditions: n = 3, MHB, 22 h
Returns: string. Value is Met if measured MIC K. pneumoniae (value in brackets) is below 7 µg/mL, and Not met if it is greater than or equal to it.

Below, 5 compounds whose answers are already recorded.
CC(C)n1[c](=[Ag][I])n(Cc2ccccn2)c2ccccc21	Met
[Br][Ag]=[c]1n(Cc2ccccc2)c2ccccc2n1Cc1ccccn1	Not met
O=[N+]([O-])[O-].[Ag+] [AgNO3, Silver nitrate, reference compound]	Met
Cn1[c](=[Ag][I])n(Cc2ccccn2)c2ccccc21	Met
COCCn1[c](=[Ag][Br])n(Cc2ccccn2)c2ccccc21	Not met

stdin: Given COCCn1[c]([Ag][Cl])[n+](Cc2ccccn2)c2ccccc21 , is recorded MIC K. pneumoniae (value in brackets) strictly lower than 7 µg/mL?
stdout: Met

stdin: Given CC(C)n1[c](=[Ag][Br])n(Cc2ccccn2)c2ccccc21 , is recorded MIC K. pneumoniae (value in brackets) strictly lower than 7 µg/mL?
stdout: Not met

stdin: Given CC(C)n1[c](=[Ag][Cl])n(Cc2ccccn2)c2ccccc21 , is recorded MIC K. pneumoniae (value in brackets) strictly lower than 7 µg/mL?
stdout: Met

----------
Assay: Conductometry: molar conductivity of silver complexes in DMSO
Format: physicochemical
Settings: 1.0 mM in DMSO, 1 h after dissolution, calculated as monocarbene (NHC)AgX
Catalogue of compounds with associated Molar conductivity ΛM
Entry rule: numbers only, all in S cm^2 mol^–^1.

Cn1[c]([Ag][Cl])[n+](Cc2ccccn2)c2ccccc21	2.88
CCn1[c](=[Ag][Cl])n(Cc2ccccn2)c2ccccc21	3.47

stdin: Provide one value: measured Molar conductivity ΛM of [Br][Ag][c]1n(Cc2ccccn2)c2ccccc2[n+]1Cc1ccccn1
stdout: 6.13

stdin: Provide one value: measured Molar conductivity ΛM of [Br][Ag]=[c]1n(Cc2ccccc2)c2ccccc2n1Cc1ccccn1
stdout: 6.58

stdin: Provide one value: measured Molar conductivity ΛM of Cn1[c](=[Ag][Br])n(Cc2ccccn2)c2ccccc21
stdout: 4.75

----------
Test: Conductometry: molar conductivity of silver complexes in DMSO
Assay type: physicochemical
Conditions: 1.0 mM in DMSO, 1 h after dissolution, calculated as monocarbene (NHC)AgX
Value Type: Molar conductivity ΛM

Would you please look over these solved cases?
COCCn1[c](=[Ag][Br])n(Cc2ccccn2)c2ccccc21 [4b]	5.11 S cm^2 mol^–^1
CCn1[c](=[Ag][I])n(Cc2ccccn2)c2ccccc21 [2c]	6.98 S cm^2 mol^–^1
COCCn1[c](=[Ag][I])n(Cc2ccccn2)c2ccccc21 [4c]	7.18 S cm^2 mol^–^1

Please find the next compound below.
stdin: Provide one value: measured Molar conductivity ΛM of CC(C)n1[c](=[Ag][Cl])n(Cc2ccccn2)c2ccccc21 [3a]
stdout: 3.34 S cm^2 mol^–^1

----------
Catalogue of molecules with associated MIC MRSA
System: S. aureus MRSA (DSM 11822, ICB 25701)
Assay: microbe, parasite or virus in culture
Type: cell-based, methicillin resistant S. aureus
Conditions: mean ± standard error, n = 3, TSY, 22 h

CC(C)[n+]1cn(Cc2ccccn2)c2ccccc21.[I-]	> 250 µM
Cn1[c](=[Ag][I])n(Cc2ccccn2)c2ccccc21	> 140 µM
CC(C)n1[c](=[Ag][I])n(Cc2ccccn2)c2ccccc21	> 132 µM

Please find the next molecule below.
stdin: Provide one value: measured MIC MRSA of CCn1[c](=[Ag][I])n(Cc2ccccn2)c2ccccc21
stdout: > 136 µM

----------
Catalogue of compounds with associated pEC50
System: P. aeruginosa PA7 (DSM 24068)
Assay: microbe, parasite or virus in culture
Format: cell-based, Pseudomonas aeruginosa
Settings: mean ± standard error, n = 3, MHB; read-out: EC50 P. aeruginosa
pEC50 field: float, defined as -log10 of concentration (mol/L).

Would you please look over these solved cases?
Cn1[c](=[Ag][I])n(Cc2ccccn2)c2ccccc21	5.30
[Br][Ag][c]1n(Cc2ccccn2)c2ccccc2[n+]1Cc1ccccn1	4.87
CCn1[c](=[Ag][Br])n(Cc2ccccn2)c2ccccc21	5.16

stdin: Provide one value: measured pEC50 of Cn1[c]([Ag][Cl])[n+](Cc2ccccn2)c2ccccc21
stdout: 5.24
